Entries annotated with measured Selectivity index
- System: MT4
- ASSAY_COMMENT: Ratio of effective concentration to that of cytotoxic concentration against HIV-1 induced cytopathogenicity in MT-4 cells
- Assay type: functional

COMPOUND | SUBJECT_OF_TEST | Selectivity index
Cc1cn([C@@H]2O[C@H](CO[Si](C)(C)C(C)(C)C)[C@@](C#N)(OS(C)(=O)=O)[C@H]2O[Si](C)(C)C(C)(C)C)c(=O)[nH]c1=O | MT4 | <2.7
Cc1ccnc2c1NC(=O)c1cccnc1N2C1CC1 | MT4 | >526
CC(=O)Nc1ccn([C@@H]2O[C@H](CO[Si](C)(C)C(C)(C)C)[C@]3(OS(=O)(=O)C=C3N)[C@H]2O[Si](C)(C)C(C)(C)C)c(=O)n1 | MT4 | <1.8
Cc1cn([C@H]2C[C@]3(OS(=O)(=O)C=C3N)[C@@H](CO[Si](C)(C)C(C)(C)C)O2)c(=O)[nH]c1=O | MT4 | <1.9
Cc1cn([C@@H]2O[C@H](CO[Si](C)(C)C(C)(C)C)[C@]3(OS(=O)(=O)C=C3N)[C@H]2O[Si](C)(C)C(C)(C)C)c(=O)[nH]c1=O | MT4 | <4.5
CC(C)(C)[Si](C)(C)OC[C@H]1O[C@@H](n2ccc(=O)[nH]c2=O)[C@H](O[Si](C)(C)C(C)(C)C)C12OS(=O)(=O)C=C2N (stereo in doubt; 11b) | MT4 | <2
Cc1cn([C@@H]2O[C@H](CO[Si](C)(C)C(C)(C)C)[C@@]3(OS(=O)(=O)C=C3N)[C@H]2O)c(=O)[nH]c1=O | MT4 | <2.2
NC1=CS(=O)(=O)O[C@]12[C@@H](CO)O[C@@H](n1ccc(=O)[nH]c1=O)[C@@H]2O | MT4 | <4
Cc1cn([C@@H]2O[C@H](CO)[C@]3(OS(=O)(=O)C=C3N)[C@H]2O)c(=O)[nH]c1=O | MT4 | <1
Cc1c(Sc2ccccc2)n(COCCO)c(=O)[nH]c1=O | MT4 | >36
CC(=O)Nc1ccn([C@@H]2O[C@H](CO[Si](C)(C)C(C)(C)C)[C@@]3(OS(=O)(=O)C=C3N)[C@H]2O[Si](C)(C)C(C)(C)C)c(=O)n1 | MT4 | 77
CC(C)(C)[Si](C)(C)O[C@H]1[C@H](n2ccc(=O)[nH]c2=O)O[C@H](CO)[C@]12OS(=O)(=O)C=C2N | MT4 | <2
Cc1cn([C@@H]2O[C@H](CO)[C@@]3(OS(=O)(=O)C=C3N)[C@H]2O[Si](C)(C)C(C)(C)C)c(=O)[nH]c1=O | MT4 | <2.6
CC(C)(C)[Si](C)(C)OC[C@H]1O[C@@H](n2ccc(=O)[nH]c2=O)[C@H](O[Si](C)(C)C(C)(C)C)C12OS(=O)(=O)C=C2N (stereo in doubt; 12b) | MT4 | 73
CC(C)=CCN1Cc2cccc3[nH]c(=S)n(c23)C[C@@H]1C | MT4 | >952

Recorded values, source ChEMBL document CHEMBL1125490.
